Assay Method Text: molar heat capacity at constant pressure
Condition Label: 205.15 K; 101.33 kPa; Crystal; Small sample (50 mg) DSC
Measurement Kind: molar heat capacity at constant pressure (J/K/mol)

{"columns": ["Compound", "Unit Symbol", "Test Value"],
 "data": [
  ["OC[C@@H](O)[C@@H](O)[C@H](O)[C@H](O)CO", "J/K/mol", 160.76],
  ["O[C@H]1[C@H](O)[C@@H](O)[C@H](O)[C@@H](O)[C@H]1O [cis-1,2,3,5-trans-4,6-cyclohexanehexol]", "J/K/mol", 147.12],
  ["OC[C@@H](O)[C@@H](O)CO", "J/K/mol", 115.95],
  ["OC[C@@H](O)[C@H](O)[C@@H](O)CO", "J/K/mol", 144.29],
  ["OC[C@H](O)C(O)[C@@H](O)CO [L-(-)-arabitol]", "J/K/mol", 143.02],
  ["OC[C@@H](O)C(O)[C@H](O)CO", "J/K/mol", 138.38]
]}

----------
Assay Method Text: molar heat capacity at constant pressure
Condition Label: 200.15 K; 101.33 kPa; Crystal; Small sample (50 mg) DSC
Measurement Kind: molar heat capacity at constant pressure (J/K/mol)

{"columns": ["Compound", "Unit Symbol", "molar heat capacity at constant pressure"],
 "data": [
  ["OC[C@@H](O)[C@@H](O)[C@H](O)[C@H](O)CO", "J/K/mol", 156.46],
  ["OC[C@@H](O)[C@H](O)[C@@H](O)CO", "J/K/mol", 140.65],
  ["OC[C@@H](O)C(O)[C@H](O)CO", "J/K/mol", 134.6],
  ["O[C@H]1[C@H](O)[C@@H](O)[C@H](O)[C@@H](O)[C@H]1O [cis-1,2,3,5-trans-4,6-cyclohexanehexol]", "J/K/mol", 142.99],
  ["OC[C@H](O)C(O)[C@@H](O)CO [L-(-)-arabitol]", "J/K/mol", 139.49],
  ["OC[C@@H](O)[C@@H](O)CO", "J/K/mol", 113.07]
]}

----------
Assay Method Text: molar heat capacity at constant pressure
Condition Label: 299.15 K; 101.33 kPa; Crystal; Small sample (50 mg) DSC
Measurement Kind: molar heat capacity at constant pressure (J/K/mol)

{"columns": ["Compound", "molar heat capacity at constant pressure (J/K/mol)"],
 "data": [
  ["OC[C@@H](O)[C@@H](O)CO", 165.2],
  ["OC[C@@H](O)C(O)[C@H](O)CO", 201.8],
  ["OC[C@@H](O)[C@@H](O)[C@H](O)[C@H](O)CO", 230.64],
  ["OC[C@H](O)C(O)[C@@H](O)CO [L-(-)-arabitol]", 207.42],
  ["O[C@H]1[C@H](O)[C@@H](O)[C@H](O)[C@@H](O)[C@H]1O [cis-1,2,3,5-trans-4,6-cyclohexanehexol]", 218.39],
  ["OC[C@@H](O)[C@H](O)[C@@H](O)CO", 209.95]
]}

----------
Assay Method Text: molar heat capacity at constant pressure
Condition Label: 8 K; 101.33 kPa; Crystal; relaxation calorimetry
Measurement Kind: molar heat capacity at constant pressure (J/K/mol)

{"columns": ["Compound", "Unit Symbol", "Test Value"],
 "data": [
  ["OC[C@H](O)C(O)[C@@H](O)CO [L-(-)-arabitol]", "J/K/mol", 0.4176]
]}

1: OC[C@@H](O)[C@@H](O)[C@H](O)[C@H](O)CO
2: O[C@H]1[C@H](O)[C@@H](O)[C@H](O)[C@@H](O)[C@H]1O [cis-1,2,3,5-trans-4,6-cyclohexanehexol]
Just tell me: smaller molar heat capacity at constant pressure value, 1 or 2 ? When you have decided, please share the label of that item.
1
(1: 0.5187 J/K/mol, 2: 0.7731 J/K/mol)
